- Run description: Plasma levels of 9-deoxo-16,16-dimethyl-9-methylene-PGE2 by radioimmunoassay after insertion of a suppository
- Assay type: in vivo, Rhesus monkeys (Macaca mulatta)
- Experimental conditions: rhesus monkey, plasma, 30 mg, plasma; Monkey #9 (pregnant animal with uterine recording); 1.0 Hours; 30 mg Free Acid in H15 Plus 2% CSD Suppositories; read-out: Drug Levels
Metric: concentration at 1 h (µg/mL)
One number for each entry, in µg/mL.

[ask] What value of concentration at 1 h has been reported for the following compound? C=C1C[C@@H](O)[C@H](/C=C/[C@@H](O)C(C)(C)CCCC)[C@H]1C/C=C\CCCC(=O)O [Free Acid, 9-deoxo-16,16-dimethyl-9-methylene-PGE2]
[reply] 0.0631
